Data provenance: paper PMC10396955

Reported zone of inhibition at […] values for the following compounds.
# Tested on: Fusarium verticillioides
# run-description: Antifungal activity, agar well diffusion method
# Type: cell-based
# test-settings: Fusarium verticillioides; 0.0078 mg/mL; 0 = absence of antifungal activity; read-out: Diameter of inhibition zone
measured-quantity: zone of inhibition at […] (mm)

compound="O=C(N[C@@H]1[C@@H]2CC[C@@]1(c1ccc(Cl)cc1)C2)c1cccnc1Cl (relative stereo)" meas_value=19
compound="Cn1cc(C(=O)N[C@@H]2[C@H]3C[C@]2(c2cc(F)c(F)c(F)c2)CO3)c(C(F)F)n1 (relative stereo)" meas_value=10
compound="O=C(N[C@@H]1[C@H]2C[C@]1(c1ccc(Cl)cc1)CO2)c1cccnc1Cl (relative stereo)" meas_value=0
compound="Cn1cc(C(=O)N[C@@H]2[C@@H]3CC[C@@]2(c2cc(F)c(F)c(F)c2)C3)c(C(F)F)n1 (relative stereo)" meas_value=37

---

# Test system: Fusarium oxysporum
# run-description: Antifungal susceptibility testing (MIC, CLSI M38-A2 microdilution)
# Type: cell-based
# test-settings: Fig. 4e
measured-quantity: MIC (µg/mL)

compound="Cn1cc(C(=O)N[C@@H]2[C@@H]3CC[C@@]2(c2cc(F)c(F)c(F)c2)C3)c(C(F)F)n1 (relative stereo) [Compound 28]" assayed_target="Fusarium oxysporum" result_units=µg/mL meas_value=125
compound="O=C(N[C@@H]1[C@@H]2CC[C@@]1(c1ccc(Cl)cc1)C2)c1cccnc1Cl (relative stereo) [Compound 30]" assayed_target="Fusarium oxysporum" result_units=µg/mL meas_value=31
compound="O=C(Nc1ccccc1-c1ccc(Cl)cc1)c1cccnc1Cl [Boscalid, reference compound]" assayed_target="Fusarium oxysporum" result_units=µg/mL meas_value=250
compound="O=C(N[C@@H]1[C@H]2C[C@]1(c1ccc(Cl)cc1)CO2)c1cccnc1Cl (relative stereo) [Compound 31]" assayed_target="Fusarium oxysporum" result_units=µg/mL meas_value=250

---

Reported logD at 1 h values for the following molecules.
# run-description: physchem
# Assay type: physicochemical
# test-settings: pH 7.4, logD (7.4)
measured-quantity: logD at 1 h

molecule="O=C(O)[C@@H]1[C@@H]2CC[C@@]1(C(=O)Nc1ccc(S(=O)(=O)Nc3nccs3)cc1)C2 (relative stereo)" meas_value="< 1"
molecule="O=C(N[C@@H]1[C@H]2C[C@]1(c1ccc(Cl)cc1)CO2)c1cccnc1Cl (relative stereo)" meas_value=2.7
molecule="O=C(NC1CCN(CCCCC2(C(=O)NCC(F)(F)F)c3ccccc3-c3ccccc32)CC1)c1ccccc1-c1ccc(C(F)(F)F)cc1 [Lomitapide, reference compound]" meas_value="> 4.5"
molecule="O=C(N[C@@H]1[C@@H]2CC[C@@]1(c1ccc(Cl)cc1)C2)c1cccnc1Cl (relative stereo)" meas_value=3.5
molecule="O=C(NC1CCN(CCCCC2(C(=O)NCC(F)(F)F)c3ccccc3-c3ccccc32)CC1)[C@@H]1[C@H]2C[C@]1(c1ccc(C(F)(F)F)cc1)CO2 (relative stereo)" meas_value="> 4.5"
molecule="Cn1cc(C(=O)Nc2ccccc2-c2cc(F)c(F)c(F)c2)c(C(F)F)n1 [Fluxapyroxad, reference compound]" meas_value=3.5

---

# run-description: Kinetic solubility in phosphate-buffered saline, pH 7.4
# Type: physicochemical
# test-settings: phosphate-buffered saline, 25 °C, pH 7.4, aqueous buffer, kinetic from dmso stock, Table S1; incubation 2; read-out: PBS solubility, pH 7.4, Incubation 2
Reported solubility at 2 h values for the following molecules.
measured-quantity: solubility at 2 h (µM)

molecule="Cn1cc(C(=O)N[C@@H]2[C@@H]3CC[C@@]2(c2cc(F)c(F)c(F)c2)C3)c(C(F)F)n1 (relative stereo)" meas_value=33
molecule="O=C(O)[C@@H]1[C@@H]2CC[C@@]1(C(=O)Nc1ccc(S(=O)(=O)Nc3nccs3)cc1)C2 (relative stereo)" meas_value=164
molecule="Cn1cc(C(=O)N[C@@H]2[C@H]3C[C@]2(c2cc(F)c(F)c(F)c2)CO3)c(C(F)F)n1 (relative stereo)" meas_value=158

---

# run-description: Metabolic stability in human liver microsomes
# Type: in vitro ADME
# test-settings: both sexes, human, liver microsomes, pH 7.4, human liver microsomes; * approximate due to high stability; read-out: t1/2
API: label(entry) gives true if the entry's half-life at 2 µM is strictly smaller than 0.3 h; on equality or larger values it gives false.

compound="O=C(NC1CCN(CCCCC2(C(=O)NCC(F)(F)F)c3ccccc3-c3ccccc32)CC1)[C@@H]1[C@@H]2CC[C@@]1(c1ccc(C(F)(F)F)cc1)C2 (relative stereo)" classification=true
compound="Cn1cc(C(=O)N[C@@H]2[C@@H]3CC[C@@]2(c2cc(F)c(F)c(F)c2)C3)c(C(F)F)n1 (relative stereo)" classification=false
compound="Cn1cc(C(=O)N[C@@H]2[C@H]3C[C@]2(c2cc(F)c(F)c(F)c2)CO3)c(C(F)F)n1 (relative stereo)" classification=false
compound="O=C(N[C@@H]1[C@@H]2CC[C@@]1(c1ccc(Cl)cc1)C2)c1cccnc1Cl (relative stereo)" classification=false
compound="O=C(NC1CCN(CCCCC2(C(=O)NCC(F)(F)F)c3ccccc3-c3ccccc32)CC1)[C@@H]1[C@H]2C[C@]1(c1ccc(C(F)(F)F)cc1)CO2 (relative stereo)" classification=false
compound="O=C(NC1CCN(CCCCC2(C(=O)NCC(F)(F)F)c3ccccc3-c3ccccc32)CC1)c1ccccc1-c1ccc(C(F)(F)F)cc1 [Lomitapide, reference compound]" classification=false

---

# Tested on: Fusarium oxysporum
# run-description: Antifungal activity, agar well diffusion method
# Type: cell-based
# test-settings: Fusarium oxysporum; 0.03125 mg/mL; zones st (static growth); read-out: Diameter of inhibition zone
Reported zone of inhibition at 31.25 µg/mL values for the following molecules.
measured-quantity: zone of inhibition at 31.25 µg/mL (mm)

molecule="Cn1cc(C(=O)N[C@@H]2[C@@H]3CC[C@@]2(c2cc(F)c(F)c(F)c2)C3)c(C(F)F)n1 (relative stereo) [Compound 28]" meas_value=28
molecule="O=C(N[C@@H]1[C@@H]2CC[C@@]1(c1ccc(Cl)cc1)C2)c1cccnc1Cl (relative stereo) [Compound 30]" meas_value=25
molecule="Cn1cc(C(=O)N[C@@H]2[C@H]3C[C@]2(c2cc(F)c(F)c(F)c2)CO3)c(C(F)F)n1 (relative stereo) [Compound 29]" meas_value=18
molecule="O=C(N[C@@H]1[C@H]2C[C@]1(c1ccc(Cl)cc1)CO2)c1cccnc1Cl (relative stereo) [Compound 31]" meas_value=16

---

# run-description: Metabolic stability in human liver microsomes
# Type: in vitro ADME
# test-settings: both sexes, human, microsomes, pH 7.4, % Remaining, Mean of 2
measured-quantity: remaining at 40 min, 2 µM (%)

compound="O=C(Nc1ccccc1-c1ccc(Cl)cc1)c1cccnc1Cl [Boscalid, reference compound]" result_units=% meas_value=66
compound="Cn1cc(C(=O)Nc2ccccc2-c2cc(F)c(F)c(F)c2)c(C(F)F)n1 [Fluxapyroxad, reference compound]" result_units=% meas_value=63

---

Reported microsomal CLint at 2 µM values for the following compounds.
# run-description: Metabolic stability in human liver microsomes
# Format: in vitro ADME
# test-settings: both sexes, human, liver microsomes, pH 7.4, human liver microsomes, 0.42 mg protein per ml; Table S3; * approximate due to high stability; read-out: Clint
measured-quantity: microsomal CLint at 2 µM (µL/min/mg)

compound="O=C(NC1CCN(CCCCC2(C(=O)NCC(F)(F)F)c3ccccc3-c3ccccc32)CC1)c1ccccc1-c1ccc(C(F)(F)F)cc1 [Lomitapide, reference compound]" measured_quantity="microsomal CLint at 2 µM" result_units=µL/min/mg meas_value=55
compound="Cn1cc(C(=O)N[C@@H]2[C@@H]3CC[C@@]2(c2cc(F)c(F)c(F)c2)C3)c(C(F)F)n1 (relative stereo)" measured_quantity="microsomal CLint at 2 µM" result_units=µL/min/mg meas_value=35
compound="O=C(NC1CCN(CCCCC2(C(=O)NCC(F)(F)F)c3ccccc3-c3ccccc32)CC1)[C@@H]1[C@@H]2CC[C@@]1(c1ccc(C(F)(F)F)cc1)C2 (relative stereo)" measured_quantity="microsomal CLint at 2 µM" result_units=µL/min/mg meas_value=157

---

# Tested on: human liver microsomes
# run-description: Metabolic stability in human liver microsomes
# Format: in vitro ADME
# test-settings: human, microsomes
measured-quantity: CIint, intrinsic clearance (µL/min/mg)

molecule="Cn1cc(C(=O)Nc2ccccc2-c2cc(F)c(F)c(F)c2)c(C(F)F)n1 [Fluxapyroxad, reference compound]" assayed_target="human liver microsomes" result_units=µL/min/mg meas_value=28
molecule="O=C(Nc1ccccc1-c1ccc(Cl)cc1)c1cccnc1Cl [Boscalid, reference compound]" assayed_target="human liver microsomes" result_units=µL/min/mg meas_value=26

---

# run-description: physchem
# Assay type: physicochemical
# test-settings: pH 7.4, LogD, pH 7.4 (mean)
measured-quantity: logD at 1 h

compound="O=C(NC1CCN(CCCCC2(C(=O)NCC(F)(F)F)c3ccccc3-c3ccccc32)CC1)[C@@H]1[C@H]2C[C@]1(c1ccc(C(F)(F)F)cc1)CO2 (relative stereo)" meas_value="> 4.5"
compound="Cn1cc(C(=O)Nc2ccccc2-c2cc(F)c(F)c(F)c2)c(C(F)F)n1 [Fluxapyroxad, reference compound]" meas_value=3.51
compound="Cn1cc(C(=O)N[C@@H]2[C@@H]3CC[C@@]2(c2cc(F)c(F)c(F)c2)C3)c(C(F)F)n1 (relative stereo)" meas_value=4.32
